The measured values listed here are drawn from paper PMC8623418.

melting point below 100 °C gives rule not met; melting point at or above it gives rule met.

Molecule: O=C(NO)C1C2CC3CC(C2)CC1C3 (stereo not drawn) [compound 2, N-Hydroxyadamantane-2-Carboxamide]
Assigned label: rule met
--
Molecule: CC1(C)[C@H]2CC[C@](C)(C2)[C@H]1NC(=O)CCCCCCCC(=O)NO [compound 14]
Assigned label: rule not met
--
Molecule: CC1(C)[C@H]2CC[C@](C)(C2)[C@H]1NC(=O)CCCCCCC(=O)NO [compound 13]
Assigned label: rule not met
--
Molecule: CC1(C)[C@@H]2CC[C@@]1(C)[C@H](NC(=O)CCCCCCC(=O)NO)C2 [compound 11]
Assigned label: rule not met
--
Molecule: O=C(CCCCCCCC(=O)NC1C2CC3CC(C2)CC1C3)NO (stereo not drawn) [compound 16]
Assigned label: rule met
--
Molecule: CC1(C)[C@@H]2CC[C@@]1(C)[C@H](NC(=O)CCCCCCCC(=O)NO)C2 [compound 12]
Assigned label: rule not met
--
Molecule: CC1(C)[C@@H]2CCC1(C)[C@H](NC(=O)/C=C/c1ccc(C(=O)NO)cc1)C2 [compound 23]
Assigned label: rule met
--
Molecule: O=C(CCCCCCC(=O)NC1C2CC3CC(C2)CC1C3)NO (stereo not drawn) [compound 15]
Assigned label: rule met

---

assay: DPPH test of antiradical activity; settings: substances at 100 μM, mean ± SEM
% of Activity, Antiradical Activity values for the compounds below.

Compound: CC1(C)[C@@H]2CC[C@@]1(C)[C@H](NC(=O)CCCCCCC(=O)NO)C2
% of Activity, Antiradical Activity [%]: 22.22
//
Compound: O=C(CCCCCCC(=O)NC1C2CC3CC(C2)CC1C3)NO (stereo not drawn)
% of Activity, Antiradical Activity [%]: 19.70
//
Compound: O=C(NO)C1C2CC3CC(C2)CC1C3 (stereo not drawn) [compound 2, N-Hydroxyadamantane-2-Carboxamide]
% of Activity, Antiradical Activity [%]: 32.02
//
Compound: CC1(C)[C@@H]2CCC1(C)[C@H](NC(=O)/C=C/c1ccc(C(=O)NO)cc1)C2
% of Activity, Antiradical Activity [%]: 20.14
//
Compound: CC1(C)C(NC(=O)/C=C/c2ccc(C(=O)NO)cc2)[C@@]2(C)CC[C@H]1C2 (stereo partly drawn)
% of Activity, Antiradical Activity [%]: 20.32
//
Compound: O=C(/C=C/c1ccc(C(=O)NO)cc1)NC1C2CC3CC(C2)CC1C3 (stereo not drawn)
% of Activity, Antiradical Activity [%]: 43.34
